Target: double-labeled CYP3A4 C64/C121-DY/ER (Homo sapiens, UniProt P08684, A121C/C239S/C377S/C468A/C98S/S18F)
Sequence (P08684 with tags, fused parts or gaps S18F/C98S/A121C/C239S/C377S/C468A limits assumed): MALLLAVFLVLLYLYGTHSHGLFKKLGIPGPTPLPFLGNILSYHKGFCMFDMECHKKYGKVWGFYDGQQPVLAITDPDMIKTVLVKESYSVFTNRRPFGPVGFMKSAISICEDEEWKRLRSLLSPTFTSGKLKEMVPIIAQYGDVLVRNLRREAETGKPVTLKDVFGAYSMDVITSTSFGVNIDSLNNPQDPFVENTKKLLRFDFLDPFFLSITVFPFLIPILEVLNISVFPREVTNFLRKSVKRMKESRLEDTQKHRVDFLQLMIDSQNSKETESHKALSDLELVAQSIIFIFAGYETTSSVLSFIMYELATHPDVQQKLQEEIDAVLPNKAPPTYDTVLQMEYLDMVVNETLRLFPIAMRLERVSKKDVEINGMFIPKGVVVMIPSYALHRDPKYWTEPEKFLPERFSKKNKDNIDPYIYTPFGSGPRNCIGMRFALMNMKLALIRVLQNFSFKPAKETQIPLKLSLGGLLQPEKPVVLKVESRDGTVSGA
Assay: Time-resolved LRET (phosphorescence lifetime measurements)
Details: Table S2; protein C64/C121-ER/DY; same ligand concentrations
Structures can show the parent of a compound that is named as a salt.
readout type: R (interprobe distance with ligand), lifetime measurements
Give your result as the value with the unit written after it.

stdin: Recall and state the measured R (interprobe distance with ligand), lifetime measurements for CC(C)C[C@H]1C(=O)N2CCC[C@H]2[C@]2(O)O[C@](NC(=O)[C@@H]3C=C4c5cccc6[nH]c(Br)c(c56)C[C@H]4N(C)C3)(C(C)C)C(=O)N12 [Bromocriptine, Bromocriptine mesylate] .
stdout: 36.4 ± 0.1 Å

stdin: Recall and state the measured R (interprobe distance with ligand), lifetime measurements for OCCCCc1ccc2ccc3cccc4ccc1c2c34 .
stdout: 35.4 ± 0.8 Å

stdin: Recall and state the measured R (interprobe distance with ligand), lifetime measurements for O=c1cc(-c2ccccc2)oc2c1ccc1ccccc12 .
stdout: 36.4 ± 0.5 Å

stdin: Recall and state the measured R (interprobe distance with ligand), lifetime measurements for C[C@]12CC[C@H]3[C@@H](CCC4=CC(=O)CC[C@@]43C)[C@@H]1CC[C@@H]2O .
stdout: 36.9 ± 0.7 Å

stdin: Recall and state the measured R (interprobe distance with ligand), lifetime measurements for CC(C)CCC[C@@H](C)[C@H]1CC[C@H]2[C@@H]3CC=C4C[C@@H](O)CC[C@]4(C)[C@H]3CC[C@]12C .
stdout: 35.8 ± 0.1 Å

src = paper PMC3871636
